# experimental_target: human D2 receptor (Homo sapiens, UniProt P14416)
# Construct: expressed in transfected cells
# Sequence (P14416 whole entry): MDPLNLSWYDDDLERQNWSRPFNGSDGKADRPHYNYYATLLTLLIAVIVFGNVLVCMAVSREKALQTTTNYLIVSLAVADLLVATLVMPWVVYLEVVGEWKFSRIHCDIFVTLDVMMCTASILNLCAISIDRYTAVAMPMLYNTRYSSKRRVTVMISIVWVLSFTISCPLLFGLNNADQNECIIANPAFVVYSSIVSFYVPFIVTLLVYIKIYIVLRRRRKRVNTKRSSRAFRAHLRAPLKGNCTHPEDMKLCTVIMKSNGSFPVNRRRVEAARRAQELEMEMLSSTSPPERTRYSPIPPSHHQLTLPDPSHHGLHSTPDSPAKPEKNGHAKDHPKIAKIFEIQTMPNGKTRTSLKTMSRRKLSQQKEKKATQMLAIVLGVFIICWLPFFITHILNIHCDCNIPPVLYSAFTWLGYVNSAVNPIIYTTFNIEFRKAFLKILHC
# assay: inhibition of [^3 H]spiperone binding to the human D2 receptor
# reported_conditions: read-out: Dopamine Receptor Binding (Ki, nM) D2
measured_attribute: Ki

The examples below pair each entry with its known result.
> print(dat)
                      smiles.representation                       experimental.target     result
1  COc1ccc2c3c(c(=O)oc2c1)CN(Cc1ccc([N+](=O)[O-])cc1)CC3  human D2 receptor (Homo sapiens, UniProt P14416)  > 5880 nM
2   Cc1cc2oc(=O)c3c(c2cc1O)CCN(Cc1ccccc1)C3  human D2 receptor (Homo sapiens, UniProt P14416)    1900 nM

Which Ki value is on record for COc1cc2oc(=O)c3c(c2cc1OC)CCN(Cc1ccc(Cl)cc1)C3 ?
> 5880 nM

---

# experimental_target: human D2 receptor (Homo sapiens)
# Construct: expressed in transfected cells
# assay: inhibition of [^3 H]spiperone binding to the human D2 receptor
# reported_conditions: read-out: Dopamine Receptor Binding (Ki, nM) D2
measured_attribute: Ki (nM)

I. COc1ccc2c3c(c(=O)oc2c1)CN(Cc1cc(OC)c(OC)c(OC)c1)CC3
II. COc1ccc2c3c(c(=O)oc2c1)CN(Cc1cccnc1)CC3
Larger number for Ki: I , or II ? Answer with the label corresponding to your selection.
II

---

# experimental_target: human D4 dopamine receptor (Homo sapiens, UniProt P21917)
# Construct: expressed in transfected cells
# Sequence (P21917 whole entry): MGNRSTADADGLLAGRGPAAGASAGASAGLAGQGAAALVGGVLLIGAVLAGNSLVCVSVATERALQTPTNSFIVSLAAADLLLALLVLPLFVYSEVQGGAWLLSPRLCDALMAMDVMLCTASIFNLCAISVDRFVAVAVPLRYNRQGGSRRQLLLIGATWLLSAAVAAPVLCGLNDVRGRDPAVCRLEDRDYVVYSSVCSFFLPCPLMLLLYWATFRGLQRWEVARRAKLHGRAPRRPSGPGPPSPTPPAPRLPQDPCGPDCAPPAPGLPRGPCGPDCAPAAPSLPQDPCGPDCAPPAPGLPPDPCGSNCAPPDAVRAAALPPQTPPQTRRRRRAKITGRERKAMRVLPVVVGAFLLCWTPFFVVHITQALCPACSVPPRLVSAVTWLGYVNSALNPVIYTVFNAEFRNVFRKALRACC
# assay: inhibition of [^3 H]spiperone binding to the human D4 dopamine receptor
measured_attribute: Ki (nM)

> print(dat)
                                   molecule  measured.attribute  readout.number
1  COc1ccc2c3c(c(=O)oc2c1)CN(Cc1cc(OC)c(OC)c(OC)c1)CC3                  Ki            21.3
2  COc1ccc2c3c(c(=O)oc2c1)CN(Cc1ccc(Cl)c(Cl)c1)CC3                  Ki            60.9
3   COc1ccc2c3c(c(=O)oc2c1)CN(Cc1ccccc1)CC3                  Ki             1.5
4   COc1ccc2c3c(c(=O)oc2c1)CN(Cc1ccccn1)CC3                  Ki              48
5  COc1ccc2c3c(c(=O)oc2c1)CN(Cc1ccc([N+](=O)[O-])cc1)CC3                  Ki            7.53

I. Cc1cc2oc(=O)c3c(c2cc1O)CCN(Cc1ccccc1)C3
II. COc1ccc2c3c(c(=O)oc2c1)CN(Cc1cccnc1)CC3
III. COc1ccc2c3c(c(=O)oc2c1)CN(Cc1ccc(C)cc1)CC3
IV. COc1ccc2c3c(c(=O)oc2c1)CN(Cc1ccnc2ccccc12)CC3
V. COc1ccc2c3c(c(=O)oc2c1)CN(Cc1ccncc1)CC3
rank_up(items): orders items by reported Ki in ascending numerical order. Reply with the labels, ordered as the question asks.
III, I, II, IV, V
(III: 2.6 nM, I: 8.01 nM, II: 21.3 nM, IV: 34.3 nM, V: 73.5 nM)

---

# experimental_target: human D3 receptor (Homo sapiens, UniProt P35462)
# Construct: expressed in transfected cells
# Sequence (P35462 whole entry): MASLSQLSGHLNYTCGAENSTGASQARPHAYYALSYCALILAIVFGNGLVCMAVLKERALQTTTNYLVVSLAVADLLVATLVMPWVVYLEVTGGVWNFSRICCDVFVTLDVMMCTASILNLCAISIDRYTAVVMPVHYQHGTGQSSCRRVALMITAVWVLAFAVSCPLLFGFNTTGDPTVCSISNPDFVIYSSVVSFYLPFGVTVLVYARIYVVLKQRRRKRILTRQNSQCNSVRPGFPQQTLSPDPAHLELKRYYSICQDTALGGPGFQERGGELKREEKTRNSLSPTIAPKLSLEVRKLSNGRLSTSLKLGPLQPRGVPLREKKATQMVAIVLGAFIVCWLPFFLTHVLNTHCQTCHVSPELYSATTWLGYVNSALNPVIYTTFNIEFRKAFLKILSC
# assay: inhibition of [^3 H]spiperone binding to the human D3 receptor
# reported_conditions: read-out: Dopamine Receptor Binding (Ki, nM) D3
measured_attribute: Ki (nM)

> print(dat)
                      smiles.representation                       experimental.target  readout.number
1  COc1ccc2c3c(c(=O)oc2c1)CN(CCc1ccccc1)CC3  human D3 receptor (Homo sapiens, UniProt P35462)             591
2  COc1ccc2c3c(c(=O)oc2c1)CN(Cc1cc(OC)c(OC)c(OC)c1)CC3  human D3 receptor (Homo sapiens, UniProt P35462)            3670
3  COc1ccc2c3c(c(=O)oc2c1)CN(Cc1cccc(Cl)c1)CC3  human D3 receptor (Homo sapiens, UniProt P35462)            2630
4    Cc1ccc2c3c(c(=O)oc2c1)CN(Cc1ccccc1)CC3  human D3 receptor (Homo sapiens, UniProt P35462)             338
5  COc1ccc2c3c(c(=O)oc2c1)CN(Cc1ccc(Cl)cc1)CC3  human D3 receptor (Homo sapiens, UniProt P35462)           11700
6  COc1ccc2c3c(c(=O)oc2c1)CN(Cc1ccc(C(F)(F)F)cc1)CC3  human D3 receptor (Homo sapiens, UniProt P35462)             966
7  COc1ccc2c3c(c(=O)oc2c1)CN(Cc1ccc(C)cc1)CC3  human D3 receptor (Homo sapiens, UniProt P35462)             491
8  COc1ccc2c3c(c(=O)oc2c1)CN(Cc1ccccc1Cl)CC3  human D3 receptor (Homo sapiens, UniProt P35462)            2610

I. Cc1cc2oc(=O)c3c(c2cc1O)CCN(Cc1ccccc1)C3
II. COc1ccc2c3c(c(=O)oc2c1)CN(Cc1ccccc1)CC3
Select one. Lower Ki: I or II Answer with the label corresponding to your selection.
II
